target: PD-1/PD-L1 protein/protein interaction (recombinant human PD-L1 protein (19-238), recombinant human PD-1 protein (25-167)) (Homo sapiens, UniProt Q9NZQ7); construct: Recombinant human PD-L1 protein (19-238) with a His-tag at the C-terminus; PD1-H5257 (PD-1); experiment: PD-1/PD-L1 Homogeneous Time-Resolved Fluorescence (HTRF) Binding Assay; settings: 25° C., PBS buffer pH 7.4, 40 minutes preincubation with inhibitors
Sequence (Q9NZQ7 19-238): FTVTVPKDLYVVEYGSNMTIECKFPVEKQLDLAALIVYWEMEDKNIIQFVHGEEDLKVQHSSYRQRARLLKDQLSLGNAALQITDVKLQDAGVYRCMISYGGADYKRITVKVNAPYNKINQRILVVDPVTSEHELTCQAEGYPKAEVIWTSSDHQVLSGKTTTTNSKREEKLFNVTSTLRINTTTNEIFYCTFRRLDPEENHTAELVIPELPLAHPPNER
parameter_measured: IC50

INSERT INTO results (smiles, parameter_measured, value) VALUES
  ('Cn1ncc2c(-c3cccc(NC(=O)c4nc5c(s4)CNCC5)c3C#N)cccc21', 'IC50', '≤ 100 nM'),
  ('N#Cc1c(NC(=O)c2nc3n(n2)CCNC3)cccc1-c1ccc2c(c1)OCCO2', 'IC50', '500 to 10000 nM'),
  ('COc1cccc(-c2cccc(NC(=O)c3nc4c(n3C)CCNC4)c2C)c1F', 'IC50', '≤ 100 nM'),
  ('N#Cc1c(NC(=O)c2cc3n(n2)CCN(CCO)C3)cccc1-c1ccc2c(c1)OCCO2', 'IC50', '100 to 500 nM'),
  ('COc1cccc(-c2cccc(NC(=O)c3nc4c(s3)CNCC4)c2C#N)c1F', 'IC50', '≤ 100 nM'),
  ('Cc1c(NC(=O)c2nc3c(s2)CNCC3)cccc1-c1ccccc1C#N', 'IC50', '100 to 500 nM'),
  ('N#Cc1c(NC(=O)c2nc3c(s2)CNCC3)cccc1C1CCCCC1', 'IC50', '100 to 500 nM'),
  ('Cc1c(NC(=O)c2nc3c(s2)CNCC3)cccc1-c1cccc(CO)c1F', 'IC50', '500 to 10000 nM'),
  ('O=C(Nc1cccc(-c2ccc3c(c2)OCCO3)c1Cl)c1nc2c(s1)CNCC2', 'IC50', '≤ 100 nM'),
  ('N#Cc1cccc(-c2cccc(NC(=O)c3nc4c(s3)CNCC4)c2C#N)c1F', 'IC50', '100 to 500 nM'),
  ('COc1cccc(-c2cccc(NC(=O)c3nc4c(n3C)CCN(CCO)C4)c2C#N)c1F', 'IC50', '≤ 100 nM'),
  ('Cc1c(NC(=O)c2nc3c(s2)CNCC3)cccc1-c1ccc2c(c1)OCCO2', 'IC50', '≤ 100 nM'),
  ('Cc1c(NC(=O)c2nc3c(s2)CN(CC(=O)O)CC3)cccc1-c1ccccc1', 'IC50', '≤ 100 nM'),
  ('Cc1c(NC(=O)c2nc3c(s2)CNCC3)cc(F)cc1-c1ccc2c(c1)OCCO2', 'IC50', '≤ 100 nM'),
  ('COc1cccc(-c2cccc(NC(=O)c3nc4c(n3C)CCNC4)c2C#N)c1F', 'IC50', '≤ 100 nM'),
  ('Cn1c(C(=O)Nc2cccc(-c3ccc4c(c3)OCCO4)c2C#N)nc2c1CCNC2', 'IC50', '≤ 100 nM'),
  ('COc1cccc(-c2cccc(NC(=O)c3nc4c(s3)CNCC4)c2C)c1F', 'IC50', '≤ 100 nM'),
  ('Cc1c(NC(=O)c2nc3c(s2)CNCC3)cccc1-c1cccc2[nH]ncc12', 'IC50', '≤ 100 nM');
